Reference source: patent US9624199B2

# targetDesc: recombinant human α2C receptor CHO cell line (Homo sapiens (Human))
# Sequence (P18825 whole entry): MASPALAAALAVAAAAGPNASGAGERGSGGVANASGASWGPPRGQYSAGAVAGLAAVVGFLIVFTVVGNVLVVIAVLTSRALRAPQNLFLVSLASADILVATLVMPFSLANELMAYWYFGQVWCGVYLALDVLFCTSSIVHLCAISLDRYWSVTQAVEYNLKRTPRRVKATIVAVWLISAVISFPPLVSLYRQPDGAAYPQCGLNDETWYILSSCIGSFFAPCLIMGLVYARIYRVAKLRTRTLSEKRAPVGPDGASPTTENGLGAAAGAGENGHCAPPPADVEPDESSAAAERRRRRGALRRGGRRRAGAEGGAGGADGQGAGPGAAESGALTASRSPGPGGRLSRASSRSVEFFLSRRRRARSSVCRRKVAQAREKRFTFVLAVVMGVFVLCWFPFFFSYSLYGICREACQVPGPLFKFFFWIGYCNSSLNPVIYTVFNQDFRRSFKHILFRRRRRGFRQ
# protocol: Antagonism against adrenoreceptor α2C (luminescence, noradrenaline-stimulated recombinant CHO cells)
# Assay type: cell-based
# reportedConditions: 20 nM noradrenaline, tested up to 10 μM
pIC50: −log10 of the molar value. Counter-ions that a name gives are not always drawn.
quantityKind: pIC50

INSERT INTO measurements (molecule, observedvalue) VALUES
  ('C[C@@H]1CCCN(C2CCN(C(=O)c3cnc(N4CCC(F)(F)CC4)nc3)CC2)C1', 7.72),
  ('COC1CCN(c2ccc(C(=O)N3CCC(N4CCC[C@@H](C)C4)CC3)cn2)C1 (some centres unmarked)', 7.92),
  ('C[C@@H]1CCCN(C2CCN(C(=O)c3cnc(N4CC5(COC5)C4)nc3)CC2)C1', 7.62),
  ('C[C@@H]1CCCN(C2CCN(C(=O)c3ccc(N4CCC(F)(F)CC4)nc3)CC2)C1', 7.74),
  ('CC[C@@H](CO)Nc1ccc(C(=O)N2CCC(N3CCC[C@@H](C)C3)CC2)cn1', 7.74),
  ('CC1CCCN(c2ccc(C(=O)N3CCC(N4CCC[C@@H](C)C4)CC3)cn2)C1 (some centres unmarked)', 7.57),
  ('O=C(c1cnc(N2CCOCC2)nc1)N1CCC(N2CCCC(OCC3CC3)C2)CC1 (centres unmarked)', 7.85),
  ('C[C@@H]1CCCN(C2CCN(C(=O)c3ccc(N4CCOCC4)nc3)CC2)C1', 7.30),
  ('C[C@@H]1CCCN(C2CCN(C(=O)c3ccc(N4CCS(=O)(=O)CC4)nc3)CC2)C1', 7.57),
  ('O=C(c1ccc(N2CCOCC2)nc1)N1CCC(N2CCCC(OCC3CC3)C2)CC1 (centres unmarked)', 7.89),
  ('C[C@@H]1CCCN(C2CCN(C(=O)c3ccc(N(C)Cc4c(F)cccc4F)nc3)CC2)C1', 8.35),
  ('COC[C@H]1CCCN1c1ccc(C(=O)N2CCC(N3CCC[C@@H](C)C3)CC2)cn1 [Example 3, formic acid salt]', 7.96),
  ('C[C@@H]1CCCN(C2CCN(C(=O)c3cnc(N4CCOCC4)nc3)CC2)C1', 7.27),
  ('COC[C@H]1CCCN1c1ncc(C(=O)N2CCC(N3CCC[C@@H](C)C3)CC2)cn1', 7.39),
  ('COCCNc1ccc(C(=O)N2CCC(N3CCC[C@@H](C)C3)CC2)cn1', 7.44),
  ('COCCN(C)c1ccc(C(=O)N2CCC(N3CCC[C@@H](C)C3)CC2)cn1 [Example 6, hydrochloride]', 7.48),
  ('CCC(CO)Nc1ccc(C(=O)N2CCC(N3CCC[C@@H](C)C3)CC2)cn1 (some centres unmarked)', 7.21);

---

# targetDesc: recombinant human α2C receptor CHO cell line (Homo sapiens (Human))
# protocol: Antagonism against adrenoreceptor α2C (luminescence, noradrenaline-stimulated recombinant CHO cells)
# Assay type: cell-based
# reportedConditions: 20 nM noradrenaline, tested up to 10 μM
quantityKind: IC50 (nM)

INSERT INTO results (compound, observedvalue) VALUES
  ('C[C@@H]1CCCN(C2CCN(C(=O)c3cnc(N4CCS(=O)(=O)CC4)cn3)CC2)C1 [Example 21]', 71),
  ('CCC(COC(N)=O)Nc1ccc(C(=O)N2CCC(N3CCC[C@@H](C)C3)CC2)cn1 (stereo partly drawn) [Example 12]', 21),
  ('CCC(COC)Nc1ccc(C(=O)N2CCC(N3CCC[C@@H](C)C3)CC2)cn1 (stereo partly drawn) [Example 14]', 16);
